Endpoint: melting point

CN(C)c1ccc(-c2cc(=O)c(C(=O)O)cn2-c2ccc(F)c(N)c2)cc1 :: 198 to 201 °C
C=C(C)COc1cc2c(c(C)c1C)N(C=O)CC2 :: 81 to 83 °C
Cc1ncc(C(=O)N(C)Cc2cc(C(F)(F)F)cc(C(F)(F)F)c2)c(-c2ccccc2Br)n1 :: 122 °C
COC(=O)C1OC(CC(C)C)(c2ccc(Cl)cc2)OC1C(=O)OC (centres undefined) :: 40 °C
CC(=O)NC(=S)NCCC1CC2c3cccc4[nH]cc(c34)CC2N(C)C1 (centres undefined) :: 213 to 215 °C

// query Which melting point value belongs to `CN(CCNc1ccc2c3c(nn2CCN)-c2c(OCc4ccccc4)ccc(OCc4ccccc4)c2C(=O)c13)Cc1ccccc1` ?
// result 169 to 172 °C

====

Endpoint: melting point

COC(=O)C1CC(O)C(=O)N1 (stereo unspecified) :: 85 to 86 °C
CN1CCC(c2c[nH]c3ccc(CCS(N)(=O)=O)cc23)CC1 :: > 95 °C
O=C(CCc1ccc(Cl)cc1Cl)NC1N=C(c2ccccc2)c2ccccc2-n2ccnc21 (stereo unspecified) :: 183 to 184 °C

// query I have this compound here, `Cc1c(Cl)ccc2c3cccc(C(=O)O)c3n(C)c12` , and I need its recorded melting point.
// result 237 °C

// query Find the recorded melting point belonging to `O=C(O)Cc1onc(-c2ccccc2)c1-c1ccccc1` and report it.
// result 153 to 157 °C

// query Returns the measured melting point for the input compound. Input: `O=C(Nc1cnc2sc(CO)nc2c1)c1cc2cc(C(F)(F)F)ccc2n1Cc1nccs1`
// result 282 to 283 °C

// query What value of melting point has been recorded for this entry: `CC(C)Oc1ccc([N+](=O)[O-])cc1C(=O)O`
// result 124 to 125 °C

// query Any idea what its melting point is? The compound is CN(Cc1cc2c(=O)c(C(=O)NCc3ccc(Cl)cc3)cn(C)c2o1)CC(O)c1cnccn1 (single isomer, unassigned; (+))
// result 148 to 151 °C

// query Report melting point for CCCCc1nc2ccc([C@H]3C[C@H](CO)ON3C)cc2c(=O)n1Cc1ccc(-c2ccccc2-c2nnn[nH]2)cc1 (relative stereo) please.
// result 110 °C

====

Documented melting point across a set of molecules

O=C(c1c[nH]c2ccc(Br)cc12)C(F)(F)F :: 254 °C
O=Cc1ccc(S(=O)(=O)CCCl)cc1Cl :: 117 to 119 °C
OC1CSC(Oc2cccc(-c3cccc(Cl)n3)c2)C(O)C1O (stereo not given) :: 180 to 222 °C
CCOC(=O)c1c[nH]cc1C(=O)OCC :: 148 to 149 °C
CC(=O)Nc1ccc(CO)cc1[N+](=O)[O-] :: 114 to 115 °C

// query Data request, read-out melting point, for `CCOC(=O)CCc1cn(Cc2ccc(OCc3nc(-c4ccccc4)oc3C)cc2)nc1-c1ccc(F)cc1`
// result 93 to 94 °C

// query I have this molecule here, Cc1c(CC2CCc3cc4ccccc4n3C2=O)ncn1Cc1ccccc1 (stereo not given) , and I need its recorded melting point.
// result 130 to 140 °C

====

Endpoint: melting point (°C)
Write the number in °C without appending the unit.

// query If you can, please state the reported melting point value of `COC(=O)c1cc(C(=O)OC)cc(-c2cc(C(F)(F)F)cc(C(F)(F)F)c2)c1` .
// result 151

// query What value of melting point has been recorded for this entry: `c1coc(Cn2c(NC3CCN(CCOc4nccs4)CC3)nc3ccccc32)c1`
// result 136

// query melting point value for entry `O=c1[nH]cc(-c2cc(-c3cnc4ccccc4c3)ccn2)n1-c1ccc(N2CCNCC2)c(C(F)(F)F)c1`
// result 155

// query Data request, read-out melting point, for `CC(=O)C=Cc1ccc2sccc2c1`
// result 75

====

Each item that follows carries a reported melting point.

// query Look at this compound and give its reported melting point. `Cn1cc(C(=O)c2ccc3ccccc3c2)cc1C(=O)c1cccnc1`
// result 132 to 133 °C

// query Consider the compound shown here: `Nc1cccc(C(=O)CN2CCN(c3ccc(CO)c(Cl)c3)CC2)c1` What is its recorded melting point?
// result 174 to 180 °C

// query Give the measured melting point of `CCOC(=O)c1cc2c(C)cccc2n1CCC(=O)O` .
// result 133 to 134 °C

// query Report melting point for Cc1ccc(C(O)C2C(c3ccccc3)CC(=O)N2C)s1 (centres undefined) please.
// result 185 to 188 °C

// query Which measured melting point value corresponds to COc1ccc(Cn2c(=O)c3c(c4ccccc42)OC(C)(C)[C@@H](O)[C@@H]3NC(=O)CCCCl)cc1 (relative stereo) ?
// result 218 to 219 °C

// query # input compound: `CS(=O)(=O)c1ccc(-c2cc(F)c(F)cc2-c2ccc(F)c(Cl)c2)cc1` ; wanted: its melting point
// result 172 °C

// query Which melting point reading was recorded for the compound `COc1ccc(-n2nc(C(C)(C)C)cc2NC(=O)c2nccc3cc(Oc4cc(Cl)ncn4)ccc23)cc1` ?
// result 156 °C

// query # melting point lookup, item `CN1C2=C(C(=O)CC(C)(C)C2)C(c2ccc(Cl)c(Oc3ccccc3)c2)C2=C1CC(C)(C)CC2=O`
// result 183 to 185 °C

// query Given `Cn1c(=O)[nH]c(=O)n(-c2cc(Oc3ncc(C(F)(F)F)cc3Cl)ccc2Br)c1=O` , state its recorded melting point.
// result 97 to 110 °C

====

Each record here notes measured melting point.

For orientation, consider the following solved cases.
c1ccc(N=C(NC(=Nc2ccccc2)N2CCCCO2)c2ccccc2)cc1 :: 187 to 190 °C
CCOC(=O)N1CCN(c2ccc(Br)cn2)CC1 :: 68 °C
CCCCC(=O)Nc1ccc(-c2cc3[nH]c(=O)[nH]c3nc2C)cc1 :: > 300 °C

// query State the recorded melting point for this entry: CCN(CC)S(=O)(=O)c1ccc(C=CC(C)(O)C(F)(F)F)cc1 (stereo unspecified)
// result 112 to 117 °C

// query Find the recorded melting point belonging to CCOC(=O)C1=C(NC(C)=O)Oc2cc(O)ccc2C1c1cnc2ccccc2c1 (stereo unspecified) and report it.
// result 248 to 251 °C

====

Known melting point of a selection of molecules

Consider the worked cases shown below.
COc1ccccc1-n1c(-c2sc(Nc3ccc(Cl)cc3)nc2-c2ccccc2)nc2ccccc2c1=O :: 230 to 232 °C
COc1ccccc1NC(=O)Nc1nc(N2CCC(O)CC2)nc(N(CCC(=O)O)Cc2ccc(Cl)c(Cl)c2)n1 :: 121 to 124 °C
CC(Cl)c1nc2c(c(=O)n(C)c(=O)n2C)n1C (stereo unspecified) :: 190 °C
COC(=O)C(O)=CC(=O)N(Cc1ccc(F)cc1)Cc1ccc(F)cc1 :: 118 to 120 °C
CC(=O)c1c(CBr)c(CBr)c(C(C)=O)c2c1C(=O)c1ccccc1C2=O :: 225 to 227 °C

// query Reported melting point, molecule `CCCOc1cc(OC)c2c(c1)C(=O)c1cccc(OCCN(CC)CC)c1-2` : ____
// result 127 to 129 °C

// query // lookup melting point for CC(C)(C)OC(=O)C(F)=CC1C(C(=O)O)C1(C)C (stereo unspecified)
// result 90 °C

// query Fill in the blank: the reported melting point of `CCOP(=O)(CNc1ccc2cc([N+](=O)[O-])cc(-c3cccc4ccccc34)c2n1)OCC` is ____.
// result 187 to 188 °C

// query What value of melting point has been recorded for this entry: `Cc1cc(C)cc(Nn2cnc(C)c2-c2ccccc2)c1`
// result 154 to 156 °C

// query What value of melting point has been recorded for this entry: `COc1ccc(S(=O)(=O)C2(C(=O)O)CCN(C)CC2)cc1`
// result 204 °C

====

We begin with a simple list: items and their reported melting point.

Some solved cases for reference:
COc1cccc(CCOc2cccc(-c3cccc(C(=O)O)c3)n2)c1 :: 156 to 157 °C
CC(=O)C(=Cc1cc([N+](=O)[O-])cc([N+](=O)[O-])c1)C(C)=O :: 101 to 105 °C
CN1CCN(c2cccc(-c3cnn4c(N)c(Cc5ccccc5)cnc34)c2)CC1 :: 72 to 75 °C
CCCCN1C(=O)NC(Cc2cc(OC)c(OC)cc2OC)C1=O (stereo not given) :: 122 °C

With those in mind, consider the next compound.
// query Given the compound `CN1C(=O)c2cscc2N(C)c2ccccc21` , what is its reported melting point?
// result 101 to 102 °C

====

# melting point per entry

# example entries with known answers
COc1ccc2[nH]c(C)c(CC(N)=O)c2c1 :: 146 to 148 °C
Cc1cccc(-c2[nH]c(C(C)C)nc2-c2cccc(-n3ccnc3)c2)n1 :: 158 to 161 °C
CCOC(=O)c1c(C)cc2nc(CO)n(-c3ccc(OC)c(OC)c3)c(=O)c2c1C :: 181 to 182 °C
CCCc1nc2c(N)nc3ccc(Br)cc3c2s1 :: 177 to 180 °C
O=C(O)C(Sc1nc2ccc(Cl)nc2s1)c1ccc(Cl)cc1 (configuration not stated) :: 144 to 146 °C
CCCc1nc(CC)c(C(=O)O)n1Cc1ccc(C2(C(=O)O)CC=CC2)s1 :: 157 to 161 °C

// query Tell me the measured melting point of `COc1ccc2nc(COc3ccc(F)c(C(N)=O)c3F)sc2c1` , please.
// result 190 to 192 °C

// query Endpoint output: melting point of `C=CCSc1ccc(Oc2ccccc2)nn1` . Value?
// result 71 to 73 °C

// query What value of melting point has been recorded for this entry: O=C1CCC(CCCOC2CCOCC2)(c2ccc(Cl)c(Cl)c2)CN1 (configuration not stated)
// result 45 °C

// query Which melting point value belongs to `COc1ccc(-c2nc(Cl)c(Oc3ccccc3OC)c(Cl)n2)cc1` ?
// result 113 to 114 °C

// query Entry under review: `O=[N+]([O-])c1cc2c(cc1C=Cc1ccccn1)OCO2` . Reported melting point?
// result 167 to 170 °C

Data provenance: a melting point compilation (Tetko et al.; mined from patent text by program, amines drawn as free bases though some values may be those of a salt)
